- assayOverview: Determination of log P values by HPLC on reversed-phase column (formic acid method)
- Format: physicochemical
- conditionDetails: reversed-phase HPLC column (C 18), pH 3.4, HPLC, reversed-phase C 18, acidic range (pH 3.4), formic acid eluents, 55° C.; read-out: logP (HCOOH)
chromatographic logP listing for selected molecules.
Please give only the number in your answer, with no unit.

C#CC(C)(C)NC(=O)c1sc(-c2cccnc2)nc1C : 1.66

Prompt line: Name the reported chromatographic logP value associated with the molecule Cc1cc(C)nc(CNC(=O)c2cnc(-c3cccnc3)s2)n1
Response line: 1.19

Prompt line: Name the reported chromatographic logP value associated with the molecule Cc1nc(-c2cccnc2)sc1C(=O)NN1CCCCC1
Response line: 1.39

Prompt line: Name the reported chromatographic logP value associated with the molecule C#CC(C)ONC(=O)c1sc(-c2cccnc2)nc1C (centres unmarked)
Response line: 1.48

Prompt line: Name the reported chromatographic logP value associated with the molecule COC(=O)C(C)NC(=O)c1sc(-c2cccnc2)nc1C (centres unmarked)
Response line: 1.36

Prompt line: Name the reported chromatographic logP value associated with the molecule Cc1nc(-c2cccnc2)sc1C(=O)NN1CCOCC1
Response line: 1.23

Prompt line: Name the reported chromatographic logP value associated with the molecule Cc1nc(-c2cncnc2)sc1C(=O)N(C)CC(F)(F)F
Response line: 1.72

Prompt line: Name the reported chromatographic logP value associated with the molecule CN(CC(F)(F)F)C(=O)c1cc(-c2cccnc2)nn1C
Response line: 1.09

Prompt line: Name the reported chromatographic logP value associated with the molecule COCN(CC1COCCO1)C(=O)c1sc(-c2cccnc2)nc1C (centres unmarked)
Response line: 1.45

Prompt line: Name the reported chromatographic logP value associated with the molecule Cc1nc(-c2cccnc2)sc1C(=O)NCC#N
Response line: 1.05

Prompt line: Name the reported chromatographic logP value associated with the molecule Cc1cnc(CNC(=O)c2sc(-c3cccnc3)nc2C)cn1
Response line: 1.15

Prompt line: Name the reported chromatographic logP value associated with the molecule Cc1nc(-c2cccnc2)sc1C(=O)NCc1ncccn1
Response line: 1.05

Prompt line: Name the reported chromatographic logP value associated with the molecule Cc1nccc(CNC(=O)c2sc(-c3cccnc3)nc2C)n1
Response line: 1.03

Prompt line: Name the reported chromatographic logP value associated with the molecule Cc1nc(-c2cccnc2)sc1C(=O)NC(C)c1nn(C)c(=O)n1C (centres unmarked)
Response line: 1.01

Prompt line: Name the reported chromatographic logP value associated with the molecule CCN(CC)C(=O)c1cnc(-c2cccnc2)s1
Response line: 1.46

Prompt line: Name the reported chromatographic logP value associated with the molecule Cc1nc(-c2cccnc2)sc1C(=O)NCc1ccncc1
Response line: 0.69

Prompt line: Name the reported chromatographic logP value associated with the molecule Cc1nc(-c2cccnc2)sc1C(=O)NCc1cc(C)n(C)n1
Response line: 1.38

Prompt line: Name the reported chromatographic logP value associated with the molecule Cc1nc(-c2cccnc2)sc1C(=O)N(C)CC(F)(F)F
Response line: 1.81

Prompt line: Name the reported chromatographic logP value associated with the molecule Cc1nc(-c2cccnc2)sc1C(=O)NCC(F)F
Response line: 1.34

Prompt line: Name the reported chromatographic logP value associated with the molecule Cc1nc(-c2cccnc2)sc1C(=O)N(CCCF)CC(F)(F)F
Response line: 2.11

----------
- assayOverview: Determination of log P values by HPLC on reversed-phase column (formic acid method)
- Type: physicochemical
- conditionDetails: reversed-phase HPLC column (C 18), pH 3.4, HPLC, reversed-phase C 18, acidic range (pH 3.4), formic acid eluents, 55° C.; read-out: logP (HCOOH)
- Method: 1) Description of Method for Determining the Log P Values (Formic Acid Method) The log P values reported in the table were determined according to EEC-Directive 79/831 Annex V.A8 by HPLC (High Performance Liquid Chromatography) on a reversed-phase column (C 18). […] Eluent A: acetonitrile+1 ml of formic acid/liter. Eluent B: water+0.9 ml of formic acid/liter. Gradient: from 10% eluent A/90% eluent B to 95% eluent A/5% eluent B in 4.25 min […]
Rule: chromatographic logP below 2 gives t, anything at or above gives f.

Sample answers from the record:
CC#CCN(CC(F)(F)F)C(=O)c1sc(-c2cccnc2)nc1C : f
Cc1nc(-c2cccnc2)sc1C(=O)N(C)CCF : t
CSCC(C)(C)N(C)C(=O)c1sc(-c2cccnc2)nc1C : f
Cc1nc(-c2cccnc2)sc1C(=O)NNc1ncccn1 : t
Cc1nc(-c2cccnc2)sc1C(=O)NC(C)(C#N)C1CCCO1 (centres unmarked) : t

Consider now this further compound.
Prompt line: Hello, is chromatographic logP of the following compound strictly smaller than 2? CN(CC1CCCO1)C(=O)c1cnc(-c2cccnc2)s1 (centres unmarked)
Response line: t
